Reference for the values: PubChem BioAssay (NCI)

Tested on: EKVX NSCLC
test.method.notes: NCI tumour cell line growth inhibition, 48 h; in the data active means GI50 below about 0.43 µM; inactive means the rest
Possible outcomes: 1 (active), 0 (inactive)

| molecule | measurement.target | assigned.category |
| --- | --- | --- |
| CCCCCCCCN(CCCCCCCC)CC(O)c1cc(-c2ccccc2)nc2ccc(OC)cc12 (centres undefined) | EKVX NSCLC | 0 |
| Clc1cnc(Nc2ccc(OCCN3CCCC3)cc2)nc1NCc1ccco1 | EKVX NSCLC | 0 |
| CC1=CC(C)=N/C(=N/S(=O)(=O)c2cc(C)c(Cl)cc2SCc2ccccc2)NN1 | EKVX NSCLC | 0 |
| CN1C(=O)N(C)C2C1NC(=S)N2/N=C/C=C/c1ccccc1[N+](=O)[O-] (centres undefined) | EKVX NSCLC | 0 |
| COC(=O)Nc1nc2ccc(C(=O)c3cccc(I)c3)cc2[nH]1 | EKVX NSCLC | 1 |
| CC(=O)/C=C(/C)[O-].CC(=O)/C=C(/C)[O-].CC(=O)[CH-]C(C)=O.CC(=O)[CH-]C(C)=O.[Zr+4] | EKVX NSCLC | 0 |
| COc1ccc2c3ccnc(C(F)(F)F)c3n(CCCCN)c2c1 | EKVX NSCLC | 0 |
| Cc1ccc2sc3c(NCCCN)nc4ccccc4c3c(=O)c2c1 | EKVX NSCLC | 0 |
| CCN1CCN(c2ccc(NC(=O)Nc3nc4ccc(-c5ccccc5OC)cc4s3)cc2)CC1 | EKVX NSCLC | 0 |
| COc1ccc(C(=O)/C=C/c2ccc(OCc3cccc(C(F)(F)F)c3)c(OC)c2)cc1OC | EKVX NSCLC | 0 |
| CC(=O)C1=C(C)N(Cc2ccccc2)C2(O)C=CC(=O)C3=C(O)c4ccccc4C(=O)C312 (centres undefined) | EKVX NSCLC | 0 |
| CC1Cc2c(Cl)ncnc2N(C)c2ccccc21 (centres undefined) | EKVX NSCLC | 0 |
| Oc1c(C(c2ccc(F)cc2)N2CCCCC2)ccc2cncnc12 (centres undefined) | EKVX NSCLC | 0 |
| O=C(Nc1ccc(Cl)c(Cl)c1)c1ccc(NC2=C(Cl)C(=O)N(Cc3ccccc3)C2=O)cc1 | EKVX NSCLC | 0 |

###

System: RXF 393 renal
test.method.notes: NCI tumour cell line growth inhibition, 48 h
Listing of entries alongside the reported TGI.

| compound | measurement.target | TGI |
| --- | --- | --- |
| COc1ccccc1-c1csc(CCC(N)C(=O)O)n1 (stereo unspecified) | RXF 393 renal | > 100 µM |
| O=C1CCC2(O)c3ccccc3C2Cc2ccccc21 (stereo unspecified) | RXF 393 renal | > 100 µM |
| O=C(O)C(Cc1ccccc1)Cc1ccccc1 | RXF 393 renal | > 100 µM |
| O=C(O)c1cc(NCc2cc(O)ccc2O)ccc1O | RXF 393 renal | > 100 µM |
| COC(=O)CC[C@@H](C)[C@H]1CC[C@H]2[C@@H]3CC[C@@H]4C[C@H](O)CC[C@]4(C)[C@H]3CC[C@]12C | RXF 393 renal | 33 µM |
| COC(=O)C1=C(C)NC(C)=C(C(=O)OC)C1c1cccc(/[N+]([O-])=C/c2ccccc2)c1 | RXF 393 renal | 30.3 µM |
| CCC(=O)NC1=C(Cl)C(=O)C(NC(=O)CC)=C(Cl)C1=O | RXF 393 renal | 12.8 µM |
| CN(C(=O)C(C)(C)C)c1ccccc1I(=O)=O | RXF 393 renal | > 100 µM |
| NS(=O)(=O)c1ccc(-c2ccc([As](=O)(O)O)cc2)cc1 | RXF 393 renal | > 100 µM |
| Cc1cc(OCc2ccc(C(F)(F)F)cc2)c2c(c1)C(=O)C=C(NCCN1CCCC1)C2=O | RXF 393 renal | 2.94 µM |
| [N-]=[N+]=C(C(=O)CN1CCCC1=O)S(=O)(=O)c1ccccc1 | RXF 393 renal | > 100 µM |

###

Test system: BT-549 breast
test.method.notes: NCI tumour cell line growth inhibition, 48 h
assay.endpoint: GI50

| molecule | result |
| --- | --- |
| CCCCCCC(=O)NC1=C(N2CC2)C(=O)C(NC(=O)CCCCCC)=C(N2CC2)C1=O | 31.3 µM |
| O=C(Nc1ccc(Cl)c(Cl)c1)c1ccc(NC2=C(Cl)C(=O)N(Cc3ccccc3)C2=O)cc1 | 3.29 µM |
| CC1=CC2(C)/C=C(C)/C=C\CC(O)/C=C3/C=CC(=C4C(=O)OC2(CC1C)C4=O)OC3 (configuration not stated) | 2.11 µM |
| COc1nn(C)cc1Nc1nccc(-c2c[nH]c3c(NC(=O)[C@@H](C)N4CCN(C)CC4)cccc23)n1 | 22.5 µM |
| CCOC(=O)N1CCC(N=C2CSc3nnc(-c4cc(C(F)(F)F)cc(C(F)(F)F)c4)n3N2)CC1 | 1.89 µM |
| CC1Cc2c(Cl)ncnc2N(C)c2ccccc21 (configuration not stated) | 5 µM |
| COc1cc2ncnc(Oc3ccc(NC(=O)Nc4ccc(CN5CCOCC5)c(C(F)(F)F)c4)c4ccccc34)c2cc1OC | 1.11 µM |

###

Listing of entries alongside the reported TGI.
System: HCT-15 colon
test.method.notes: NCI tumour cell line growth inhibition, 48 h

| molecule | TGI |
| --- | --- |
| Oc1ccc(-c2nc3cc(C(F)(F)F)ccc3s2)cc1 | 22.1 µM |
| CC(C)(C)OC(=O)N1C(=O)C2CCCC21 (stereo unspecified) | > 100 µM |
| CCOc1ccccc1N=NC1C(=O)N(C(=O)CC(=O)Nc2ccccc2C)N=C1C (stereo unspecified) | > 100 µM |
| O=S(=O)(O)c1cc(S(=O)(=O)O)c2cc(N=Nc3ccc(N=Nc4ccc(/C=C/c5ccc(N=[N+]([O-])c6ccc(/C=C/c7ccc(N=Nc8ccc(N=Nc9ccc%10cc(S(=O)(=O)O)cc(S(=O)(=O)O)c%10c9)cc8)cc7S(=O)(=O)O)c(S(=O)(=O)O)c6)cc5S(=O)(=O)O)c(S(=O)(=O)O)c4)cc3)ccc2c1 | > 100 µM |
| COc1cc2c(cc1OCC(=O)Nc1ccc(Cl)cc1C(=O)c1ccccc1Cl)N=CC1CCCN1C2=O (stereo unspecified) | 26 µM |
| Cc1cc2nc3c(C#N)c(C)c(CCCl)c(Cl)n3c2cc1C | 3.85 µM |
| NS(=O)(=O)c1nnc(NS(=O)(=O)c2cccc3cccnc23)s1 | > 100 µM |
| O=C(O)c1cc(NCc2cc(O)ccc2O)ccc1O | > 100 µM |
| CCOC(=O)N1CCC(N=C2CSc3nnc(-c4cc(C(F)(F)F)cc(C(F)(F)F)c4)n3N2)CC1 | 5.4 µM |
| O=C1C=CC2C3C(=O)N(c4ccccc4)C(=O)C3C1N2Cc1ccccc1 (stereo unspecified) | 3.89 µM |
| O=C1C2=C(C(=O)c3ccccc31)C(O)(S(=O)(=O)O)C(O)(S(=O)(=O)O)C1N=CC=CC21 (stereo unspecified) | > 100 µM |
| CC1(C)CC(=O)C(CC2C(=O)CCCC2=O)C(=O)C1 | > 100 µM |
| O=C1c2ccccc2C(=O)N1CC#CCO | > 100 µM |
| O=C(Nc1ccc(Br)cc1)C(=O)C(C(=O)c1ccc(Cl)c(Cl)c1)C1OC(=O)c2ccccc21 (stereo unspecified) | 53.7 µM |
| CCOC(=O)c1sc2nc(SC)nc3c2c1NCN3C | > 100 µM |
| Cc1cc(N(CCC#N)CCC#N)ccc1/C(N=Nc1ccc(C(=O)O)cc1)=N\NC(=O)c1ccccc1 | > 100 µM |
| CC1=CC2(C)/C=C(C)/C=C\CC(O)/C=C3/C=CC(=C4C(=O)OC2(CC1C)C4=O)OC3 (stereo unspecified) | 3.69 µM |
| CCC[N+](C)(C)CCCNC(=O)c1c(O)c2ccccc2[nH]c1=O | > 100 µM |
| Clc1cnc(Nc2ccc(OCCN3CCCC3)cc2)nc1NCc1ccco1 | 11.8 µM |
| COc1cc(C(c2ccccc2)N2C(=O)CC[C@H]2C(=O)O)cc(OC)c1OC (stereo partly specified) | > 100 µM |
| Cc1nc(N)c(N2CCN(S(=O)(=O)N(Cc3ccccc3)Cc3ccccc3)CC2)c(=O)[nH]1 | > 100 µM |
| COc1cc(OC)c(/C=C/C(=O)c2c(OC)cc(OC)cc2OC)c(OC)c1 | 33.4 µM |
| Clc1ccc2c(NC3CCC(N4CCCCC4)CC3)ccnc2c1 (stereo unspecified) | > 100 µM |
| NC(=O)NNC/C(Cl)=C(\Cl)C(=O)O | > 100 µM |
| Oc1c(C(Nc2ccccn2)c2ccccc2)ccc2cccnc12 (stereo unspecified) | > 100 µM |
| Nc1nc2cc(Cl)ccc2n1N | > 100 µM |
| NC(=Nc1ccccc1)N/N=C/c1c[nH]c2ccccc12 | 10.1 µM |
| CCOP(=O)(OCC)C(Nc1ccc(Cl)cc1)c1ccc(F)cc1 (stereo unspecified) | > 100 µM |
| COc1ccc(C(=O)/C=C/c2ccc(OCc3cccc(C(F)(F)F)c3)c(OC)c2)cc1OC | > 1000 µM |
| CCC(=O)NC1=C(Cl)C(=O)C(NC(=O)CC)=C(Cl)C1=O | 27.1 µM |
| CC(C)OC1=C(CC2(C)OCCO2)C(=O)C12OCCO2 | > 100 µM |
| COc1cc2nc(-c3cccs3)nc(N3CCN(c4ccccc4)CC3)c2cc1OC | > 100 µM |
| Cc1cn(C2CC(O)C(Cn3nncc3Cn3nc(Br)c(=O)[nH]c3=O)O2)c(=O)[nH]c1=O (stereo unspecified) | > 100 µM |
| CCOC(=O)C1=C(Nc2ccc(OC)cc2)C(N)=NC1=N | > 100 µM |
| O=C(O)C(Cc1ccccc1)Cc1ccccc1 | > 100 µM |
| C=CCc1c(O)c(C(=O)/C=C/c2ccc(Cl)cc2)c(OC)c2ccoc12 | 12.9 µM |
| CC1C(c2ccccc2)N(C)C(c2ccccc2)C(C)C1(O)c1ccccc1 (stereo unspecified) | > 100 µM |
| O=C(CC12C3C4C1C1C2C3C41CC(=O)NO)NO (stereo unspecified) | > 100 µM |
| CN1C(=O)N(C)C2C1NC(=S)N2/N=C/C=C/c1ccccc1[N+](=O)[O-] (stereo unspecified) | > 100 µM |
| COc1cc2nc(-c3cccs3)nc(Nc3ccccc3C(=O)NN)c2cc1OC | > 100 µM |
| C[Si](C)(C)OC1(C#N)c2ccccc2CCCC12CCCC2 (stereo unspecified) | > 100 µM |
